target: phosphorylated VEGF-R2Δ50 (Homo sapiens, UniProt P35968, DEL940-989/E990V); construct: VEGF-R2Δ50 contains residues 806-939 and 990-1171; made in house; host or cells: baculovirus/insect cells; assay: VEGF-R2 ELISA assay; type: biochemical; settings: Table 1; * determined with ELISA assay; read-out: FLVK-P Ki
Sequence (P35968 with tags, fused parts or gaps DEL940-989/E990V limits assumed): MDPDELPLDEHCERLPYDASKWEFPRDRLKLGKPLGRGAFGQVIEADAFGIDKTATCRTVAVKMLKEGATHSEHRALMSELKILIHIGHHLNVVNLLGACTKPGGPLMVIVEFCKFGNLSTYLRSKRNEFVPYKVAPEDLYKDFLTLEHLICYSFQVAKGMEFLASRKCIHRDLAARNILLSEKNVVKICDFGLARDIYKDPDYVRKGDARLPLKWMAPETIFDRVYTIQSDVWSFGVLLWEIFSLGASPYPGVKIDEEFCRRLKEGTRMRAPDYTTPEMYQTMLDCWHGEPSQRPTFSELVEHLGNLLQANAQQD
measure: Ki (nM)

1. COc1cc(Nc2nc(N)c(-c3nc(-c4cccc(NC(=O)c5ncc(C)s5)c4)no3)s2)cc(OC)c1OC [D(51)]
2. COc1cc(Nc2nc(N)c(-c3nc(-c4cccc(NC(=O)C(F)F)c4)cs3)s2)cc(OC)c1OC [D(14)]
3. COc1cc(Nc2nc(N)c(-c3nc(-c4cccc(NC(=O)OC(C)C)c4)cs3)s2)cc(OC)c1OC [D(10)]
4. COc1cc(Nc2nc(N)c(-c3nc(-c4cccc(NC(=O)COc5ccccc5)c4)cs3)s2)cc(OC)c1OC [D(15)]
Exercise: Ordering: ascending Ki. The reply should contain the labels ordered as requested.
Solution: 1, 3, 2, 4

P. COC(=O)Nc1cccc(-c2csc(-c3sc(Nc4cc(OC)c(OC)c(OC)c4)nc3N)n2)c1 [D(6)]
Q. CNC(=O)Nc1cccc(-c2csc(-c3sc(Nc4cc(OC)c(OC)c(OC)c4)nc3N)n2)c1 [D(7)]
R. COc1cc(Nc2nc(N)c(-c3nc(-c4cccc(NC(=O)CC(C)C)c4)cs3)s2)cc(OC)c1OC [D(9)]
S. COc1cc(Nc2nc(N)c(-c3nc(-c4cccc(N)c4)cs3)s2)cc(OC)c1OC [C(1)]
Exercise: Thanks in advance: please rank these 4 entries by Ki, highest to lowest. List the labels, following the order given in the request.
Solution: S, Q, R, P
(S: 300 nM, Q: 120 nM, R: 47 nM, P: 25 nM)

a. COc1cc(Nc2nc(N)c(-c3nc(-c4cccc(NC(=O)Cc5ccccc5)c4)cs3)s2)cc(OC)c1OC [D(5)]
b. COc1cc(Nc2nc(N)c(-c3nc(-c4cccc(NC(=O)C(F)(F)F)c4)cs3)s2)cc(OC)c1OC [D(13)]
Exercise: Choose between a and b : whose measured Ki value is numerically larger? # respond with the chosen item's label
Solution: b
(b: 120 nM, a: 63 nM)

P. CCC(=O)Nc1cccc(-c2csc(-c3sc(Nc4cc(OC)c(OC)c(OC)c4)nc3N)n2)c1 [D(8)]
Q. COc1cc(Nc2nc(N)c(-c3nc(-c4cccc(NC(=O)c5cc6ccccc6o5)c4)cs3)s2)cc(OC)c1OC [D(21)]
Exercise: Decide: P or Q , by lowest recorded Ki. Choose, then provide that item's label.
Solution: P
(P: 29 nM, Q: 60 nM)
